List of IC50 values.
Target: 5HT-transporter (Homo sapiens)
Construct: Human platelet membranes (Oceanix Biosciences Corporation, Hanover, Md., USA) were thawed; tissue Oceanix Biosciences Corporation, Hanover, Md., USA; host or cells: human platelet membranes
Assay: Binding experiment for the 5HT-transporter ([3H]paroxetine, human platelet membranes)
Details: [3H]paroxetine 0.5 nM, 60 min at 25° C., read-out: h-5HTT pIC50 (converted)

MOLECULE	UNIT_ABBREVIATION	IC50
O=C(NCc1ccccc1)NCc1ccc(-n2ccnc(NC3CCN(Cc4ccc5ccccc5c4)CC3)c2=O)cc1 [1-48]	nM	10
O=Cc1ccc(-n2ccnc(NC3CCN(Cc4ccc5ccccc5c4)CC3)c2=O)cc1 [5-10]	nM	100
O=c1c(NC2CCN(Cc3ccc4ccccc4c3)CC2)nccn1-c1ccc(CNCc2ccco2)cc1 [1-82]	nM	5.01

====

Biological target: 5HT-transporter (Homo sapiens, UniProt P31645)
Construct: Human platelet membranes (Oceanix Biosciences Corporation, Hanover, Md., USA) were thawed; tissue Oceanix Biosciences Corporation, Hanover, Md., USA; host or cells: human platelet membranes
Sequence (P31645 whole entry): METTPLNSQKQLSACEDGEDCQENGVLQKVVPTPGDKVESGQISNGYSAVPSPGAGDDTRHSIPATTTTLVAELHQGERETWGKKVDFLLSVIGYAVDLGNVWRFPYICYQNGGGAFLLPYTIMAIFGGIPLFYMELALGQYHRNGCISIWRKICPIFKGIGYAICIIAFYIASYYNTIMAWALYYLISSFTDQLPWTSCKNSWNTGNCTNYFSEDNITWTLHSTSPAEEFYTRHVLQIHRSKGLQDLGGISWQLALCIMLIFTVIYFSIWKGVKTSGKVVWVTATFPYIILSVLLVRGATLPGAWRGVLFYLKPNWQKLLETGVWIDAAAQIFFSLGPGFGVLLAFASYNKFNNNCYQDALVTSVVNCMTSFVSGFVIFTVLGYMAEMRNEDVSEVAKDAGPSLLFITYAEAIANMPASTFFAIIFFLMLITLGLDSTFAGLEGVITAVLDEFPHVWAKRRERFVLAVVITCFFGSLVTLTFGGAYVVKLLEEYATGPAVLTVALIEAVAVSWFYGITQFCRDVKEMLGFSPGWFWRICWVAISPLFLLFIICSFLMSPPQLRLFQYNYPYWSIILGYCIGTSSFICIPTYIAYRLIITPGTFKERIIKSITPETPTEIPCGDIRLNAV
Experiment: Binding experiment for the 5HT-transporter ([3H]paroxetine, human platelet membranes)
Conditions: [3H]paroxetine 0.5 nM, 60 min at 25° C., read-out: h-5HTT pIC50 (converted)
Description: The interaction of the compounds of Formula (I) with α2C-adrenoceptor receptors was assessed in in vitro radioligand binding experiments. […] When equilibrium of binding is reached, the receptor bound radioactivity is separated from the non-bound radioactivity, and the receptor- or transporter-bound activity is counted. The interaction of the test compounds with the receptor is assessed in competition binding experiments. […]
Measured IC50, listed per entry for reference.

SMILES_RECORD	IC50, nM
O=c1c(NC2CCN(Cc3ccc4ccccc4c3)CC2)nccn1-c1cccnc1	100
O=C(CCn1ccnc(NC2CCN(Cc3ccc4ccccc4c3)CC2)c1=O)c1ccccc1	15.8
O=c1c(NC2CCN(Cc3ccc4ccccc4c3)CC2)nccn1CCCC(c1ccc(F)cc1)c1ccc(F)cc1	158
CCOC(CCn1ccnc(NC2CCN(Cc3ccc4ccccc4c3)CC2)c1=O)OCC	251
COc1ccc(Cn2c(-c3cccc(CN4CCN(C)CC4)c3)c(Cl)nc(NC3CCN(Cc4ccc5ccccc5c4)CC3)c2=O)cc1	50.1
O=C(Cn1ccnc(NC2CCN(Cc3ccc4ccccc4c3)CC2)c1=O)N1CCN(c2ccccc2)CC1	200
COC(=O)c1ccc(-n2ccnc(NC3CCN(Cc4ccc5ccccc5c4)CC3)c2=O)cc1	39.8
CCOC(=O)CCCCn1ccnc(NC2CCN(Cc3ccc4ccccc4n3)CC2)c1=O	3980
CN(C)CCN(C)Cc1ccc(-n2ccnc(NC3CCN(Cc4ccc5ccccc5c4)CC3)c2=O)cc1	63.1
O=c1c(NC2CCN(Cc3ccc4ccccc4c3)CC2)nccn1-c1csc2ccccc12	31.6
CC(=O)Cn1ccnc(NC2CCN(Cc3ccc4ccccc4c3)CC2)c1=O	1000

====

Quick reference: IC50 of the listed items.
Target: human adrenergic-α2C receptor (Homo sapiens)
Construct: expressed in transfected cells; host or cells: CHO cells, stably transfected; membrane preparation
Sequence (P18825 1-462): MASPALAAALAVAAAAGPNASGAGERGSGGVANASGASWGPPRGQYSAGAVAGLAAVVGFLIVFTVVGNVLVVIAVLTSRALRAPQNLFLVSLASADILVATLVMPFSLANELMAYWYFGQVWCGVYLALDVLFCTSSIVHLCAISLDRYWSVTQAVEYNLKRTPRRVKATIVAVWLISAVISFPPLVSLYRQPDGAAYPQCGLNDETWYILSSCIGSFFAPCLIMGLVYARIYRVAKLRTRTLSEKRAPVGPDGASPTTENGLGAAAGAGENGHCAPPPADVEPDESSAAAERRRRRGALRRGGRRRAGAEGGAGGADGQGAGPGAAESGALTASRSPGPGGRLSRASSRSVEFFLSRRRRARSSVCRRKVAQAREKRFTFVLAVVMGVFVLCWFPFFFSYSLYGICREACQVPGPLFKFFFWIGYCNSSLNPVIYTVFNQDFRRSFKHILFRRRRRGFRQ
Experiment: Radioligand binding experiment for hα2C-adrenoceptor ([3H]raulwolscine)
Conditions: [3H]raulwolscine 1 nM, 60 minutes at 25° C.; read-out: h-α2C pIC50 (converted)

MOLECULE	IC50 (nM)
O=c1c(NC2CCN(Cc3ccc4ccccc4c3)CC2)nccn1CCC1OCCO1	79.4
O=c1[nH]c(-c2cccc(CN3CCCCC3)c2)c(Cl)nc1NC1CCN(Cc2ccc3ccccc3c2)CC1	126
O=C(Cn1ccnc(NC2CCN(Cc3ccc4ccccc4c3)CC2)c1=O)NCCCc1ccccc1	31.6
COc1ccc(Cn2c(-c3cccc(CNCC4CCCO4)c3)c(Cl)nc(NC3CCN(Cc4ccc5ccccc5c4)CC3)c2=O)cc1 (centres unmarked)	158
Cc1ccc(N2CCN(C(=O)Cn3ccnc(NC4CCN(Cc5ccc6ccccc6c5)CC4)c3=O)CC2)cc1C	79.4
COc1ccc(Cn2c(-c3ccc(CO)cc3)c(Cl)nc(NC3CCN(Cc4ccc5ccccc5c4)CC3)c2=O)cc1	251
CN(CC(=O)N(C)C)Cc1ccc(-n2ccnc(NC3CCN(Cc4ccc5ccccc5c4)CC3)c2=O)cc1	15.8
O=c1c(NC2CCN(Cc3ccc4ccccc4c3)CC2)nccn1-c1nccs1	63.1
O=c1[nH]c(-c2cccc(Br)c2)c(Cl)nc1NC1CCN(Cc2ccc3ccccc3c2)CC1	794
O=C(NCCCn1ccnc(NC2CCN(Cc3ccc4ccccc4c3)CC2)c1=O)Nc1ccccc1	20
O=C(NCCN1CCOCC1)c1ccc(-n2ccnc(NC3CCN(Cc4ccc5ccccc5c4)CC3)c2=O)cc1	63.1
CN(C)CCN(C)Cc1ccc(-n2ccnc(NC3CCN(Cc4ccc5ccccc5c4)CC3)c2=O)cc1	15.8
O=c1c(NC2CCN(Cc3ccc4ccccc4c3)CC2)nccn1-c1ccc(COCCN2CCOCC2)cc1	3.98
O=C(Cn1ccnc(NC2CCN(Cc3ccc4ccccc4c3)CC2)c1=O)Nc1ccccc1	31.6
O=C(Cn1ccnc(NC2CCN(Cc3ccc4ccccc4c3)CC2)c1=O)N1CCC(C(F)(F)F)CC1	126
O=c1c(NC2CCN(Cc3ccc4ccccc4c3)CC2)nccn1-c1ccc(CN2CCCCC2)cc1	10
O=C(Cn1ccnc(NC2CCN(Cc3ccc4ccccc4c3)CC2)c1=O)NCC(c1ccccc1)c1ccccc1	63.1
CCNC(=O)Cc1ccc(-n2ccnc(NC3CCN(Cc4ccc5ccccc5c4)CC3)c2=O)cc1	31.6
O=C1CCCN1Cc1ccc(-n2ccnc(NC3CCN(Cc4ccc5ccccc5c4)CC3)c2=O)cc1	31.6
CCCN(C)C(=O)Cn1ccnc(NC2CCN(Cc3ccc4ccccc4c3)CC2)c1=O	63.1
O=c1c(NC2CCN(Cc3ccc4ccccc4c3)CC2)nccn1-c1ccc(NCC2CCCO2)cc1 (centres unmarked)	10
O=c1c(NC2CCN(Cc3ccc4ccccc4c3)CC2)nccn1CCCCO	63.1
CC(C)(Cc1ccccc1)NC(=O)Cn1ccnc(NC2CCN(Cc3ccc4ccccc4c3)CC2)c1=O	39.8
O=c1c(NC2CCN(Cc3ccc4ccccc4c3)CC2)nccn1-c1cccnc1	50.1
O=c1[nH]ncn1CCCn1ccnc(NC2CCN(Cc3ccc4ccccc4c3)CC2)c1=O	100
COc1ccc(Cn2c(-c3cccc(CN4CCN(C)CC4)c3)c(Cl)nc(NC3CCN(Cc4ccc5ccccc5c4)CC3)c2=O)cc1	126

====

SMILES_RECORD	UNIT_ABBREVIATION	melting point
O=c1c(NC2CCN(Cc3ccc4ccccc4c3)CC2)nccn1-c1ccc(COCCN2CCOCC2)cc1	°C	153.9
O=C(CCN1CCOCC1)Nc1ccc(-n2ccnc(NC3CCN(Cc4ccc5ccccc5c4)CC3)c2=O)cc1	°C	183.4
CCCC(=O)NCc1ccc(-n2ccnc(NC3CCN(Cc4ccc5ccccc5c4)CC3)c2=O)cc1F	°C	95
COC(=O)c1ccc(-n2ccnc(NC3CCN(Cc4ccc5ccccc5c4)CC3)c2=O)cc1	°C	196.5
O=C1c2ccccc2C(=O)N1C/C=C/Cn1ccnc(NC2CCN(Cc3ccc4ccccc4c3)CC2)c1=O	°C	172.8
O=C(c1ccc(-n2ccnc(NC3CCN(Cc4ccc5ccccc5c4)CC3)c2=O)cc1)N1CCOCC1	°C	271.4
O=C(NCCN1CCCCC1)c1ccc(-n2ccnc(NC3CCN(Cc4ccc5ccccc5c4)CC3)c2=O)cc1	°C	172.3

====

Parameter IC50: see the listing below.
Target: human adrenergic-α2A receptor (Homo sapiens)
Construct: expressed in transfected cells; host or cells: CHO cells, stably transfected; membrane preparation
Sequence (P08913 whole entry): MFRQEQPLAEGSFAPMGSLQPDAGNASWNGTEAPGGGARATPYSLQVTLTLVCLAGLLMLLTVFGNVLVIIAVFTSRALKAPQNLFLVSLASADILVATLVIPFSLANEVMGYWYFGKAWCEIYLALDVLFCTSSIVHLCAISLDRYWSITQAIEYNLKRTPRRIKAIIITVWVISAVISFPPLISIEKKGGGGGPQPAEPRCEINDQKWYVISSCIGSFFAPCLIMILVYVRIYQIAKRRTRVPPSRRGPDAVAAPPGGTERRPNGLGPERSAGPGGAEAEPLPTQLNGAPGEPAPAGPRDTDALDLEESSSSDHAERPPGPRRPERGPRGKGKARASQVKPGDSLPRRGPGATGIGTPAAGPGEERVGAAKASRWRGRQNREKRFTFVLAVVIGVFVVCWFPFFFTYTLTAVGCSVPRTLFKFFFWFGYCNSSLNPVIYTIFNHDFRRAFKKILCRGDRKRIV
Experiment: Radioligand binding experiment for hα2A-adrenergic receptor ([3H]raulwolscine)
Details: [3H]raulwolscine 1 nM, 60 minutes at 25° C.; read-out: h-α2A pIC50 (converted)
Experimental: The interaction of the compounds of Formula (I) with α2C-adrenoceptor receptors was assessed in in vitro radioligand binding experiments. […] When equilibrium of binding is reached, the receptor bound radioactivity is separated from the non-bound radioactivity, and the receptor- or transporter-bound activity is counted. The interaction of the test compounds with the receptor is assessed in competition binding experiments. […]

SMILES_RECORD	IC50 (nM)
O=c1c(NC2CCN(Cc3ccc4ccccc4c3)CC2)nccn1Cc1cccc([N+](=O)[O-])c1	200
CCCNC(=O)c1ccc(-n2ccnc(NC3CCN(Cc4ccc5ccccc5c4)CC3)c2=O)cc1	200
COc1ccc(Cn2c(-c3ccc(CO)cc3)c(Cl)nc(NC3CCN(Cc4ccc5ccccc5c4)CC3)c2=O)cc1	200
O=C(Cn1ccnc(NC2CCN(Cc3ccc4ccccc4c3)CC2)c1=O)NCCc1ccccc1	316
CN1CCN(Cc2cccc(-c3[nH]c(=O)c(NC4CCN(Cc5ccc6ccccc6c5)CC4)nc3Cl)c2)CC1	631
O=C(CCN(c1nccn(CCC(=O)c2ccccc2)c1=O)C1CCN(Cc2ccc3ccccc3n2)CC1)c1ccccc1	316
O=C(Cn1ccnc(NC2CCN(Cc3ccc4ccccc4c3)CC2)c1=O)NCCCc1ccccc1	200

Cited source for all entries: patent US20080269251A1
